Test system: CD8+ and CD4+ T cells (autologous CD3+ Pan-T cells isolated from human normal PBMCs)
Test: Exogenous autologous normal donor restimulation assay (15-mer overlapping peptide pools on CD1c+ dendritic cells, TNFα/IFNγ flow cytometry)
Format: cell-based
Settings: Table 28; additional neoantigens; 15-mer overlapping peptide pool; highest across normal donors
Text: CD1c+ Dendritic Cells (DC) isolated from human normal PBMCs were thawed using media (IMDM (Gibco) supplemented with glutamine, HEPES, 5% human serum (Sigma), and 1× Pen-Strep). […] The following day, DC cells were counted and plated in a 96 well round bottom microplate at a concentration of 30,000 viable cells per well. […] On day 12, cells were stained for intracellular flow cytometry analysis. […] Cells were washed and resuspended in stain buffer and analyzed using a BD Celesta flow cytometer. […]
MEASUREMENT KIND: Max. Frequency of CD4+ TNFαINFγ DP

[[record]]
substance = "AGAGTISEGSVLHGQRLECDARRFFGCGTTILAEWEHH (listed as Homo sapiens) [AS59, ACSL3 alternative splicing]"
measurement_kind = "Max. Frequency of CD4+ TNFαINFγ DP"
observed_value = 0.3

[[record]]
substance = "KVLNEIDAVVTVPPSLSTSQIPQGCCIIL (listed as Homo sapiens) [AS20, PFKFB4 alternative splicing]"
measurement_kind = "Max. Frequency of CD4+ TNFαINFγ DP"
observed_value = 0.05

[[record]]
substance = "P27 (LHPQRETFTPRWSGANYWKLAFPVGAEGTFPAAATQRGVVRPA; listed as Homo sapiens) [Neoantigen P27]"
measurement_kind = "Max. Frequency of CD4+ TNFαINFγ DP"
observed_value = 0.05

[[record]]
substance = "MS11 (GSLHFHEVLK; listed as Homo sapiens)"
measurement_kind = "Max. Frequency of CD4+ TNFαINFγ DP"
observed_value = 0.13

[[record]]
substance = "LTFLDFIQVTLRVMSGSQMENGSSYFFKPFSWGLGVGLSAWLCVMLT (listed as Homo sapiens) [AS1, ABCC4 alternative splicing]"
measurement_kind = "Max. Frequency of CD4+ TNFαINFγ DP"
observed_value = 0.02

[[record]]
substance = "MS10 (TVRAILL; listed as Homo sapiens)"
measurement_kind = "Max. Frequency of CD4+ TNFαINFγ DP"
observed_value = 0.28

[[record]]
substance = "DCMLSEEGGQARRGGSLCSLAAHTIASAARGRFLSRLSNFCAVVKASRGAPSCTWE (listed as Homo sapiens) [AS40, LRRC45 alternative splicing]"
measurement_kind = "Max. Frequency of CD4+ TNFαINFγ DP"
observed_value = 0.89

